- System: primary human hepatic stellate cells (donor 1)
- experimental-details: scaled lipid accumulation score (0 = DMSO-like, 1 = nortriptyline-like); higher = stronger HSC inactivation (lipid re-accumulation), active = hit call of the paper
- measurement-parameters: library stock concentration: 3.33 mM; 48 h
Structures can show the parent of a compound that is named as a salt. The campaign covered roughly 5,800 compounds. About 620 (11%) showed activity.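 How the source made its calls: active = score above a cut-off or among the top three wells of a plate; in these data no inactive exceeds 0.85.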 Shown is part of a subset that was picked to be rich in actives.
Please reply with one of these outcomes: 1 for active, 0 for inactive

Please review the following examples before continuing.
[
  {
    "compound": "Cc1coc2c1C(=O)C(=O)c1c-2ccc2c(C)cccc12",
    "class-assignment": 0
  },
  {
    "compound": "Cc1cncc(CN2CCC(=C3c4ccc(Cl)cc4CCc4cccnc43)CC2)c1 [Rupatadine Fumarate]",
    "class-assignment": 0
  },
  {
    "compound": "O=C(O)c1ccc(-c2c[nH]c3ncc(-c4ccccc4)cc23)cc1C1CCCC1",
    "class-assignment": 0
  }
]

Okay, now this compound:
Enquiry: Field: outcome | Entry: `COC(=O)N1CCN(Cc2cccc(NC(=O)Nc3ccc(C)nc3)c2F)CC1`
Return: 0
